target: adenosine A2a receptor (Human) (Homo sapiens, UniProt P29274); construct: host or cells: HEK293; assay: c-AMP generating action in cell expressing adenosine A2a receptor; type: cell-based; details: HEK293 cell expressing human A2a; 100% = c-AMP caused by 1 μM CGS-21680; read-out: A2a Agonistic Action (EC50)
Sequence (P29274 whole entry): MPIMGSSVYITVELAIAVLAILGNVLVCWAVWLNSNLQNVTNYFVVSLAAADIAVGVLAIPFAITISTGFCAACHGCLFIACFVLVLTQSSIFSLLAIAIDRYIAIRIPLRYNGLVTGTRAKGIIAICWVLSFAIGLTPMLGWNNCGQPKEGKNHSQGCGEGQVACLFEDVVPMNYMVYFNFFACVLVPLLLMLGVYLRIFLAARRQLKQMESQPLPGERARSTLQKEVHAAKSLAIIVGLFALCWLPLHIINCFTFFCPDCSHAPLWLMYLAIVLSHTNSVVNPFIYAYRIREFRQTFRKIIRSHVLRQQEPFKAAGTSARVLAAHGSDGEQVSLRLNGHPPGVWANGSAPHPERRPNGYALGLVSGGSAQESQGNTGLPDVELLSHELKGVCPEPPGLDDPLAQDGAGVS
pEC50: −log10 of the molar value. Structures can show the parent of a compound that is named as a salt.
measured.attribute: pEC50

> print(dat)
                                   molecule                                       tgt  quantitative.readout
1  CCCC(=O)Nc1ccc(-c2nc(SCc3cccc(C)n3)nc(N)c2C#N)cc1  adenosine A2a receptor (Human) (Homo sapiens, UniProt P29274)                  6.40
2  CC(=O)Nc1ccc(-c2nc(SCc3cc(C)ccn3)nc(N)c2C#N)cc1  adenosine A2a receptor (Human) (Homo sapiens, UniProt P29274)                  6.06
3  CC(=O)Nc1ccc(-c2nc(SCc3cccc(C#CCCC(=O)N4CCN(C)CC4)n3)nc(N)c2C#N)cc1  adenosine A2a receptor (Human) (Homo sapiens, UniProt P29274)                  8.15
4  CC(=O)Nc1ccc(-c2nc(SCc3cccc(CCC(=O)N4CCNCC4)n3)nc(N)c2C#N)cc1 [Example 74, hydrochloride]  adenosine A2a receptor (Human) (Homo sapiens, UniProt P29274)                  8.60
5  CC(=O)Nc1ccc(-c2c(C#N)c(N)nc(SCc3ccccn3)c2C#N)cc1 [Comparative Compound B, reference compound]  adenosine A2a receptor (Human) (Homo sapiens, UniProt P29274)                  7.84
6  CCN(CC)CCNC(=O)CCc1cccc(CSc2nc(N)c(C#N)c(-c3ccc(NC(C)=O)cc3)n2)n1.Cl [Example 66, hydrochloride salt]  adenosine A2a receptor (Human) (Homo sapiens, UniProt P29274)                  8.28
7  CCC(=O)CCc1cccc(CSc2nc(N)c(C#N)c(-c3ccc(NC(C)=O)cc3)n2)n1  adenosine A2a receptor (Human) (Homo sapiens, UniProt P29274)                  8.09
8  CCN(CC)CCN1CCN(C(=O)CCCCc2cccc(CSc3nc(N)c(C#N)c(-c4ccc(NC(C)=O)cc4)n3)n2)CC1 [Example 55, hydrochloride]  adenosine A2a receptor (Human) (Homo sapiens, UniProt P29274)                  8.26

[P] CC(=O)Nc1ccc(-c2nc(SCc3ccc(C)cn3)nc(N)c2C#N)cc1
[Q] CC(=O)Nc1ccc(-c2nc(SCc3cccc(CCC(=O)N4CCCN(C)CC4)n3)nc(N)c2C#N)cc1.Cl [Example 80, hydrochloride]
[R] CC(=O)Nc1ccc(-c2nc(SCc3cccc(CN4CCN(C(=O)OC(C)(C)C)CC4)n3)nc(N)c2C#N)cc1
[S] CC(=O)Nc1ccc(-c2nc(SCc3cccc(CN4CCOCC4)n3)nc(N)c2C#N)cc1
Which order do these items take when sorted by rising pEC50? List them. Output spec: a listing of the labels in the requested order.
P, S, R, Q

[P] CC(=O)Nc1ccc(-c2nc(SCc3cccc(CN4CCN(C(=O)c5ccccc5)CC4)n3)nc(N)c2C#N)cc1
[Q] CC(=O)Nc1ccc(-c2nc(SCc3cccc(CCC(=O)NCCN)n3)nc(N)c2C#N)cc1 [Example 60, hydrochloride]
Which entry has a larger number for pEC50, P or Q ? Select an item and report its label.
Q

---

Target: A1 receptor (Rattus norvegicus, UniProt P25099)
Construct: cerebral cortex of male Wistar rats (Charles River Japan, Inc) was extirpated; from tissue; host or cells: cerebral cortex of male Wistar rats, cell membrane preparation
Sequence (P25099 1-326): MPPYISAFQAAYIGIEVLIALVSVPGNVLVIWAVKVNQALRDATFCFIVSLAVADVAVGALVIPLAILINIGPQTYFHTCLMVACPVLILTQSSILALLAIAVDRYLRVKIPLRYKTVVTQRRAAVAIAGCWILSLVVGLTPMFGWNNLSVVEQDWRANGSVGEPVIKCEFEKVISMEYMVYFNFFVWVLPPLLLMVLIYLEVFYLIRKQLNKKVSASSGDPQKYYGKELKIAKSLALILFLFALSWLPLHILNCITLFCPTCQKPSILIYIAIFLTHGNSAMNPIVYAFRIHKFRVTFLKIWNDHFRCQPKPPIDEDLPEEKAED
Assay: Adenosine A1 agonistic action ([35S]GTPγS binding, rat cerebral cortex cell membrane)
Type: biochemical, male Wistar rats
Conditions: test compound 1 μM; percentage to 100% of CPA 1 μM
measured.attribute: A1 Agonistic Action (%)

> print(dat)
                                   compound  quantitative.readout
1  CC(=O)Nc1ccc(-c2nc(SCc3cccc(CCC(=O)N4CCN(C)CC4)n3)nc(N)c2C#N)cc1 [Example 46]                    45
2  CC(=O)Nc1ccc(-c2c(C#N)c(N)nc(SCc3ccccn3)c2C#N)cc1 [Comparative Compound B, reference compound]                    77
3  CCN(CC)CCN1CCN(C(=O)CCc2cccc(CSc3nc(N)c(C#N)c(-c4ccc(NC(C)=O)cc4)n3)n2)CC1.Cl [Example 75]                    50
4  CC(=O)Nc1ccc(-c2nc(SCc3cccc(CCC(=O)N4CCN(CCN5CCCC5)CC4)n3)nc(N)c2C#N)cc1.Cl [Example 77]                    40
5  CC(=O)Nc1ccc(-c2nc(SCc3cccc(CCC(=O)N(C)CCN(C)C)n3)nc(N)c2C#N)cc1.Cl [Example 62]                    39

[A] N#Cc1c(N)nc(SCc2csc(-c3ccc(Cl)cc3)n2)c(C#N)c1-c1ccc(OCCO)cc1 [Comparative Compound A, reference compound]
[B] CC(=O)Nc1ccc(-c2nc(SCc3cccc(CCC(=O)N4CCN(CCN(C(C)C)C(C)C)CC4)n3)nc(N)c2C#N)cc1.Cl [Example 76]
Which gives the smaller A1 Agonistic Action (%) number: A or B ? Answer by stating the label of the chosen item.
B
(B: 46%, A: 79%)

---

Target: A1 receptor (Rattus norvegicus)
Construct: cerebral cortex of male Wistar rats (Charles River Japan, Inc) was extirpated; from tissue; host or cells: cerebral cortex of male Wistar rats, cell membrane preparation
Sequence (P25099 1-326): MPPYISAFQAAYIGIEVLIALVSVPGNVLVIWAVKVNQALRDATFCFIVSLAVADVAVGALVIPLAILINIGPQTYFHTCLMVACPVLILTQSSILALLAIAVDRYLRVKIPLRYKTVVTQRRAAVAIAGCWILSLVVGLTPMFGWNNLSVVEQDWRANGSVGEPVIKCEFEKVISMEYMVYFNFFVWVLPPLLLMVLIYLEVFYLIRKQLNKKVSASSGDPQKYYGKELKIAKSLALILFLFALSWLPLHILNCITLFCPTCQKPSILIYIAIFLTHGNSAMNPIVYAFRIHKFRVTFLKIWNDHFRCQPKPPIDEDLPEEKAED
Assay: Adenosine A1 agonistic action ([35S]GTPγS binding, rat cerebral cortex cell membrane)
Type: biochemical, male Wistar rats
Conditions: test compound 100 nM; percentage to 100% of CPA 1 μM
measured.attribute: A1 Agonistic Action (%)

> print(dat)
                                   compound       measured.attribute  quantitative.readout
1  CC(=O)Nc1ccc(-c2c(C#N)c(N)nc(SCc3ccccn3)c2C#N)cc1 [Comparative Compound B, reference compound]  A1 Agonistic Action (%)                    63
2  CC(=O)Nc1ccc(-c2nc(SCc3cccc(CCC(=O)N(C)CCN(C)C)n3)nc(N)c2C#N)cc1.Cl  A1 Agonistic Action (%)                    30
3  CC(=O)Nc1ccc(-c2nc(SCc3cccc(CCC(=O)N4CCN(CCN5CCCC5)CC4)n3)nc(N)c2C#N)cc1.Cl  A1 Agonistic Action (%)                    18
4  CCN(CC)CCN1CCN(C(=O)CCc2cccc(CSc3nc(N)c(C#N)c(-c4ccc(NC(C)=O)cc4)n3)n2)CC1.Cl  A1 Agonistic Action (%)                    22

[1] N#Cc1c(N)nc(SCc2csc(-c3ccc(Cl)cc3)n2)c(C#N)c1-c1ccc(OCCO)cc1 [Comparative Compound A, reference compound]
[2] CC(=O)Nc1ccc(-c2nc(SCc3cccc(CCC(=O)N4CCN(CCN(C(C)C)C(C)C)CC4)n3)nc(N)c2C#N)cc1.Cl
[3] CC(=O)Nc1ccc(-c2nc(SCc3cccc(CCC(=O)N4CCN(C)CC4)n3)nc(N)c2C#N)cc1
Reorder: A1 Agonistic Action (%), max to min. Record the ranking as a list of labels in the requested order.
1, 3, 2
